System: methicillin-resistant Staphylococcus aureus (MRSA) shhsE1
EXPERIMENT_NOTES: microbe, parasite or virus in culture
CONDITION_NOTES: methicillin-resistant shhsE1
Non-standard residues stand in square brackets, D forms with d. Residues, ends and D or L forms follow the SMILES beside them.
EXPERIMENTAL_ENDPOINT: MIC (µg/mL)
Give your result in µg/mL as a bare value.

COMPOUND	MIC, µg/mL
CC[C@H](C)[C@@H]1NC(=O)[C@H](CC(N)=O)NC(=O)[C@@H](CCCNC(=N)N)NC(=O)[C@H](Cc2c[nH]c3ccccc23)NC(=O)[C@H](CC(C)C)NC(=O)[C@@H](CC(C)C)NC1=O [Compound 15, Desotamide A6] (cyclo(I[dL]LW[dR]N))	8
CC[C@H](C)[C@@H]1NC(=O)[C@H](CC(N)=O)NC(=O)[C@@H](Cc2c[nH]cn2)NC(=O)[C@H](Cc2c[nH]c3ccccc23)NC(=O)[C@H](CC(C)C)NC(=O)[C@@H](CC(C)C)NC1=O [Compound 14, Desotamide A5] (cyclo(I[dL]LW[dH]N))	64

Attention now shifts to the item below.
Req: Which value of MIC has been reported for CC[C@H](C)[C@@H]1NC(=O)[C@H](CC(N)=O)NC(=O)[C@@H](CCCCN)NC(=O)[C@H](Cc2c[nH]c3ccccc23)NC(=O)[C@H](CC(C)C)NC(=O)[C@@H](CC(C)C)NC1=O [Compound 13, Desotamide A4] (cyclo(I[dL]LW[dK]N)) in the records?
Resp: 16

###

Test system: methicillin-resistant Staphylococcus aureus (MRSA) shhsE1
EXPERIMENT_NOTES: microbe, parasite or virus in culture
CONDITION_NOTES: methicillin-resistant shhsE1
Non-standard residues stand in square brackets, D forms with d. Residues, ends and D or L forms follow the SMILES beside them. aIle = CC[C@@H](C)[C@H](N)C(=O)O
EXPERIMENTAL_ENDPOINT: MIC

Example entries begin here.
COMPOUND	ASSAY_SYSTEM	MIC
CC[C@@H](C)[C@@H]1NC(=O)[C@@H](CC(C)C)NC(=O)[C@H](CC(C)C)NC(=O)[C@H](Cc2c[nH]c3ccccc23)NC(=O)CNC(=O)[C@H](CC(N)=O)NC1=O [Compound 1, desotamide A] (cyclo(GWL[dL][aIle]N))	methicillin-resistant Staphylococcus aureus (MRSA) shhsE1	64 µg/mL
CC[C@@H](C)[C@@H]1NC(=O)[C@H](CC(N)=O)NC(=O)[C@@H](Cc2c[nH]cn2)NC(=O)[C@H](Cc2c[nH]c3ccccc23)NC(=O)[C@H](CC(C)C)NC(=O)[C@@H](CC(C)C)NC1=O [Compound 12, Desotamide A3] (cyclo(LW[dH]N[aIle][dL]))	methicillin-resistant Staphylococcus aureus (MRSA) shhsE1	>128 µg/mL

Attention now shifts to the item below.
Req: Which value of MIC has been reported for CC[C@@H](C)[C@@H]1NC(=O)[C@H](CC(N)=O)NC(=O)[C@@H](CCCCN)NC(=O)[C@H](Cc2c[nH]c3ccccc23)NC(=O)[C@H](CC(C)C)NC(=O)[C@@H](CC(C)C)NC1=O [Compound 11, Desotamide A2] (cyclo(LW[dK]N[aIle][dL])) in the records?
Resp: >128 µg/mL

###

Test system: Gram-positive pathogens
CONDITION_NOTES: summary, Figure 2
Non-standard residues stand in square brackets, D forms with d. Residues, ends and D or L forms follow the SMILES beside them. aIle = CC[C@@H](C)[C@H](N)C(=O)O
EXPERIMENTAL_ENDPOINT: Gram positive antibacterial activity for desotamides (in words)

MOLECULE	ASSAY_SYSTEM	RESULT
CC[C@H](C)[C@@H]1NC(=O)[C@H](CC(N)=O)NC(=O)[C@@H](CCCCN)NC(=O)[C@H](Cc2c[nH]c3ccccc23)NC(=O)[C@H](CC(C)C)NC(=O)[C@@H](CC(C)C)NC1=O [Compound 13, Desotamide A4] (cyclo(I[dL]LW[dK]N))	Gram-positive pathogens	2–4-Fold more active than 1
CC[C@@H](C)[C@@H]1NC(=O)[C@H](CC(N)=O)NC(=O)[C@@H](CCCCN)NC(=O)[C@H](Cc2c[nH]c3ccccc23)NC(=O)[C@H](CC(C)C)NC(=O)[C@@H](CC(C)C)NC1=O [Compound 11, Desotamide A2] (cyclo(LW[dK]N[aIle][dL]))	Gram-positive pathogens	Inactive
CC(C)C[C@@H]1NC(=O)[C@H](CC(N)=O)NC(=O)CNC(=O)[C@H](Cc2c[nH]c3ccccc23)NC(=O)[C@H](CC(C)C)NC(=O)[C@@H](CC(C)C)NC1=O [Compound 16, Desotamide A7] (cyclo(NL[dL]LWG))	Gram-positive pathogens	Inactive

###

Gram positive antibacterial activity for desotamides (in words) listing for selected compounds.
Test system: Gram-positive pathogens
CONDITION_NOTES: summary, Figure 2
Non-standard residues stand in square brackets, D forms with d. Residues, ends and D or L forms follow the SMILES beside them.

COMPOUND	RESULT
CC[C@H](C)[C@@H]1NC(=O)[C@H](CC(N)=O)NC(=O)[C@@H](Cc2c[nH]cn2)NC(=O)[C@H](Cc2c[nH]c3ccccc23)NC(=O)[C@H](CC(C)C)NC(=O)[C@@H](CC(C)C)NC1=O [Compound 14, Desotamide A5] (cyclo(I[dL]LW[dH]N))	2-Fold less active than 1

Attention now shifts to the item below.
Req: Which value of Gram positive antibacterial activity for desotamides (in words) has been reported for CC[C@H](C)[C@@H]1NC(=O)[C@H](CC(N)=O)NC(=O)[C@@H](CCCNC(=N)N)NC(=O)[C@H](Cc2c[nH]c3ccccc23)NC(=O)[C@H](CC(C)C)NC(=O)[C@@H](CC(C)C)NC1=O [Compound 15, Desotamide A6] (cyclo(I[dL]LW[dR]N)) in the records?
Resp: 2–4-Fold more active than 1

###

System: Staphylococcus haemolyticus LJH9
EXPERIMENT_NOTES: microbe, parasite or virus in culture
Excerpt: […]
Non-standard residues stand in square brackets, D forms with d. Residues, ends and D or L forms follow the SMILES beside them. aIle = CC[C@@H](C)[C@H](N)C(=O)O
MIC listing for selected compounds.
Give your result in µg/mL as a bare value.

Example entries begin here.
COMPOUND	EXPERIMENTAL_ENDPOINT	READOUT_NUMBER
CC[C@H](C)[C@@H]1NC(=O)[C@H](CC(N)=O)NC(=O)[C@@H](CCCNC(=N)N)NC(=O)[C@H](Cc2c[nH]c3ccccc23)NC(=O)[C@H](CC(C)C)NC(=O)[C@@H](CC(C)C)NC1=O [Compound 15, Desotamide A6] (cyclo(I[dL]LW[dR]N))	MIC	32
CC(C)C[C@@H]1NC(=O)[C@H](Cc2c[nH]c3ccccc23)NC(=O)[C@@H](CCCNC(=N)N)NC(=O)[C@H](CC(N)=O)NC(=O)[C@H](C(C)C)NC(=O)[C@@H](CC(C)C)NC1=O [Compound 8, Wollamide B1] (cyclo([dR]WL[dL]VN))	MIC	32
CC[C@@H](C)[C@@H]1NC(=O)[C@@H](CC(C)C)NC(=O)[C@H](CC(C)C)NC(=O)[C@H](Cc2c[nH]c3ccccc23)NC(=O)CNC(=O)[C@H](CC(N)=O)NC1=O [Compound 1, desotamide A] (cyclo(GWL[dL][aIle]N))	MIC	128

Attention now shifts to the item below.
Req: Checklist item: MIC tested on Staphylococcus haemolyticus LJH9, entry CC[C@H](C)[C@@H]1NC(=O)[C@H](CC(N)=O)NC(=O)[C@@H](Cc2c[nH]cn2)NC(=O)[C@H](Cc2c[nH]c3ccccc23)NC(=O)[C@H](CC(C)C)NC(=O)[C@@H](CC(C)C)NC1=O [Compound 14, Desotamide A5] (cyclo(I[dL]LW[dH]N)) , value?
Resp: 64

###

Test system: Staphylococcus haemolyticus LJH9
EXPERIMENT_NOTES: microbe, parasite or virus in culture
Non-standard residues stand in square brackets, D forms with d. Residues, ends and D or L forms follow the SMILES beside them. aIle = CC[C@@H](C)[C@H](N)C(=O)O
EXPERIMENTAL_ENDPOINT: MIC

MOLECULE	EXPERIMENTAL_ENDPOINT	RESULT
CC[C@@H](C)[C@@H]1NC(=O)[C@H](CC(N)=O)NC(=O)[C@@H](Cc2c[nH]cn2)NC(=O)[C@H](Cc2c[nH]c3ccccc23)NC(=O)[C@H](CC(C)C)NC(=O)[C@@H](CC(C)C)NC1=O [Compound 12, Desotamide A3] (cyclo(LW[dH]N[aIle][dL]))	MIC	>128 µg/mL

Req: Which value of MIC has been reported for CC[C@@H](C)[C@@H]1NC(=O)[C@H](CC(N)=O)NC(=O)[C@@H](CCCCN)NC(=O)[C@H](Cc2c[nH]c3ccccc23)NC(=O)[C@H](CC(C)C)NC(=O)[C@@H](CC(C)C)NC1=O [Compound 11, Desotamide A2] (cyclo(LW[dK]N[aIle][dL])) in the records?
Resp: >128 µg/mL

Each recorded value in this set is attributed to paper PMC8225045.
